Source listed as patent US20030148956A1.

Target: T1, corticotropin releasing factor 2 receptor
T1 sequence (Q13324 whole entry, species assumed, looked up): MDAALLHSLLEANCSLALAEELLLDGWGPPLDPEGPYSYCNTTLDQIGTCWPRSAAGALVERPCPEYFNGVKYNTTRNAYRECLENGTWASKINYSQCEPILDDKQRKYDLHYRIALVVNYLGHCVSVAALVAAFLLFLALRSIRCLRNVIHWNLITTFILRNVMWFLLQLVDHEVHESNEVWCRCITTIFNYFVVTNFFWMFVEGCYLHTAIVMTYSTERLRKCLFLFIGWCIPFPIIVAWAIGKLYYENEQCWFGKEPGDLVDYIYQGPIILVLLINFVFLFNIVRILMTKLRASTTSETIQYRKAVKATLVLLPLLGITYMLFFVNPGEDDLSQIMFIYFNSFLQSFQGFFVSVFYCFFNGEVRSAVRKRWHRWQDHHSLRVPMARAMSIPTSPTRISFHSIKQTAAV
Test: cell-based or functional assay
Ends that are not written are not given here.
Lab note: compare CRF2R EC50 with 20 nM, writing y if less and n if equal or more.

{"BINDER": "DNPSLSIDLPLFLLRTLLELEKTQSQRERAEQNARIFARV-NH2 [SEQ ID NO 334]", "ASSIGNED_LABEL": "y"}
{"BINDER": "ZGPPISIDLPYQLLRKVIEIEKQEKEKQQAANNARLLARI (C-terminal amide) [SEQ ID NO 286]", "ASSIGNED_LABEL": "y"}
{"BINDER": "IVLSLDVSIGLLQILLEQARARAAREQATTNARILARV-NH2 [SEQ ID NO 370]", "ASSIGNED_LABEL": "n"}
{"BINDER": "ZGPPISIDLPLYLLRKMIEIEKQEKEKQQATTNARLLDRV (C-terminal amide) [SEQ ID NO 243]", "ASSIGNED_LABEL": "y"}
{"BINDER": "ZGPPISIDLPTYLLRKMIEIEKQEKEKQQAANNALLLDTI (C-terminal amide) [SEQ ID NO 232]", "ASSIGNED_LABEL": "n"}
{"BINDER": "ZGPPISIDLPWWLLRKMIEIEKQEKEKQQAANNRLLLDTI (C-terminal amide) [SEQ ID NO 216]", "ASSIGNED_LABEL": "y"}
{"BINDER": "ZGPPISIDLPAFLLRKMIEIEKQEKEKQQAANNRLLLDTI (C-terminal amide) [SEQ ID NO 222]", "ASSIGNED_LABEL": "y"}
{"BINDER": "ZGPPISIDLPFQLLRKVIEIEKQEKEKQQAANNALLLDTI (C-terminal amide) [SEQ ID NO 350]", "ASSIGNED_LABEL": "y"}
{"BINDER": "ZGPPISIDLPFQLLRKAIEIEKQEKEKQQAANNALLLDTI (C-terminal amide) [SEQ ID NO 365]", "ASSIGNED_LABEL": "n"}
{"BINDER": "ZGPPISIDLPLQLLRKMIEIEKQEKEKQQATTNARLLDTV (C-terminal amide) [SEQ ID NO 246]", "ASSIGNED_LABEL": "n"}
